Consider the following binders; for each one, report its CRF1R Emax.
Experimental Target: corticotropin releasing factor 1 receptor; note: reference of the scale not given here
Method Notes: cell-based or functional assay
Ends that are not written are not given here.
Numbers only, in %.

// solved cases for CRF1R Emax follow
[[record]]
binder = "ZGPPISIDLPYVLLRKMIEIEKQEKEKQQAANNRLLLDTI (C-terminal amide) [SEQ ID NO 201]"
number = 80

[[record]]
binder = "IVLSLDVPIGLLQILLEQAKAEAAREQATTNARILARV-NH2 [SEQ ID NO 112]"
number = 10


Please supply CRF1R Emax for each of the following items, keeping them in order.
1. ZGPPISIDLSLELLRKMIEIEKQEKEKQQAANNALLLATI (C-terminal amide) [SEQ ID NO 30]
2. ZGPPISIDLPIWLLRKMIEIEKQEKEKQQAANNRLLLDTI (C-terminal amide) [SEQ ID NO 192]
3. SQEPPISLDLPTELLREVLEMTKADQLAQQAHSNRKIIDIA-NH2 [SEQ ID NO 92]

[100, 99, 4.6]

Please supply CRF1R Emax for each of the following items, keeping them in order.
1. DNPSLSIDLPLHLLRTLLELARTQSQRERAEQNAIIFASV-NH2 [SEQ ID NO 179]
2. ZGPPISIDLPLELLRKMIEIEKQEKEKQQATTNARILARV (C-terminal amide) [SEQ ID NO 143]
3. ZGPPISIDLPAQLLRKMIEIEKQEKEKQQAANNRLLLDTI (C-terminal amide) [SEQ ID NO 211]
4. SQEPPISLDLPFGLLREVLEMTKADQLAQQAHSNRKLLDIA-NH2 [SEQ ID NO 103]
5. IVLSLDVPIGLLQILLEQERQRAAREQATTNARILARV-NH2 [SEQ ID NO 111]
6. ZGPPISIDLPTDLLRKMIEIEKQEKEKQQAANNRLLLDTI (C-terminal amide) [SEQ ID NO 49]
7. ZGPPISIDLPFQLLRKMIEIEKQEKEKQQATTNRLLLDTI (C-terminal amide) [SEQ ID NO 13]

1: 78.9; 2: 100; 3: 37; 4: 5.75; 5: 9; 6: 15; 7: 69
